These measurements were taken from the supplement of paper PMC9112550.

System: Escherichia coli TOP10
PROCEDURE TEXT: shrunken log2 fold change of peptide-encoding DNA abundance (4.5 h post-induction vs induction); higher = less antimicrobial activity (less host growth inhibition)
EXPERIMENTAL CONTEXT: time post-induction: 4.5 h; library: site-saturation at positions 5, 18, 19, 20
So I've got a bunch of sequences here, and I need their shrunken log2 fold change values.
Reply with just the number.

Query :: I'd like to know its shrunken log2 fold change. The sequence in question is RRIRKRPPRLPRPRPRPRHEPRP
Result :: -0.115

Query :: Item: RRIRKRPPRLPRPRPRPCNNPRP
Result :: -0.474

Query :: Item: RRIRSRPPRLPRPRPRPCMQPRP
Result :: -0.31

Query :: Item: RRIRVRPPRLPRPRPRPQHWPRP
Result :: 0.171

Query :: Item: RRIRARPPRLPRPRPRPGGRPRP
Result :: 0.525

Query :: Item: RRIRARPPRLPRPRPRPHFSPRP
Result :: 0.0805

Query :: Item: RRIRDRPPRLPRPRPRPTYIPRP
Result :: -0.393

Query :: Item: RRIRRRPPRLPRPRPRPMDVPRP
Result :: 0.0427

Query :: Item: RRIRRRPPRLPRPRPRPQPHPRP
Result :: 0.396

Query :: Item: RRIRRRPPRLPRPRPRPQQHPRP
Result :: -0.0327

Query :: Item: RRIRYRPPRLPRPRPRPGPQPRP
Result :: -0.151

Query :: Item: RRIRMRPPRLPRPRPRPQGRPRP
Result :: 0.113

Query :: Item: RRIRSRPPRLPRPRPRPEYMPRP
Result :: -0.609

Query :: Item: RRIRVRPPRLPRPRPRPQNAPRP
Result :: 0.00238

Query :: Item: RRIRARPPRLPRPRPRPISHPRP
Result :: -0.131

* * *

System: Escherichia coli TOP10
PROCEDURE TEXT: shrunken log2 fold change of peptide-encoding DNA abundance (4.5 h post-induction vs induction); higher = less antimicrobial activity (less host growth inhibition)
EXPERIMENTAL CONTEXT: time post-induction: 4.5 h; library: site-saturation at positions 5, 18, 19, 20
Binning of shrunken log2 fold change into classes: Low: < -0.2; Medium: ≥ -0.2 and < 0.04; High: ≥ 0.04

Query :: Sort RRIRIRPPRLPRPRPRPEFWPRP into one of the categories.
Result :: Medium

Query :: Item: RRIRARPPRLPRPRPRPGDGPRP
Result :: High

Query :: Item: RRIRFRPPRLPRPRPRPTILPRP
Result :: Low

Query :: Item: RRIRRRPPRLPRPRPRPMNAPRP
Result :: High

Query :: Item: RRIRNRPPRLPRPRPRPCWGPRP
Result :: Low

Query :: Item: RRIRMRPPRLPRPRPRPATWPRP
Result :: High

Query :: Item: RRIRGRPPRLPRPRPRPYCQPRP
Result :: Low

Query :: Item: RRIRVRPPRLPRPRPRPQHPPRP
Result :: Medium

Query :: Item: RRIRTRPPRLPRPRPRPYYAPRP
Result :: Low

Query :: Item: RRIRVRPPRLPRPRPRPTSRPRP
Result :: Medium

Query :: Item: RRIRCRPPRLPRPRPRPRRIPRP
Result :: Low

Query :: Item: RRIRIRPPRLPRPRPRPIQVPRP
Result :: Medium

Query :: Item: RRIRRRPPRLPRPRPRPGFCPRP
Result :: High

Query :: Item: RRIRHRPPRLPRPRPRPKCGPRP
Result :: Medium

* * *

Tested on: Escherichia coli TOP10
PROCEDURE TEXT: shrunken log2 fold change of peptide-encoding DNA abundance (4.5 h post-induction vs induction); higher = less antimicrobial activity (less host growth inhibition)
EXPERIMENTAL CONTEXT: time post-induction: 4.5 h; library: site-saturation at positions 5, 18, 19, 20
Binning of shrunken log2 fold change into classes: low end: < -0.03; middle: ≥ -0.03 and < 0.3; high end: ≥ 0.3

Query :: Sort RRIRQRPPRLPRPRPRPSNHPRP into one of the categories.
Result :: low end

Query :: Item: RRIRKRPPRLPRPRPRPEVVPRP
Result :: middle

Query :: Item: RRIRERPPRLPRPRPRPREWPRP
Result :: high end

Query :: Item: RRIRKRPPRLPRPRPRPWARPRP
Result :: high end

Query :: Item: RRIRPRPPRLPRPRPRPAEPPRP
Result :: low end

Query :: Item: RRIRFRPPRLPRPRPRPAIEPRP
Result :: high end

Query :: Item: RRIRKRPPRLPRPRPRPCKEPRP
Result :: low end

Query :: Item: RRIRWRPPRLPRPRPRPLDFPRP
Result :: middle

Query :: Item: RRIRGRPPRLPRPRPRPYKRPRP
Result :: low end

Query :: Item: RRIRGRPPRLPRPRPRPTKDPRP
Result :: high end

Query :: Item: RRIRNRPPRLPRPRPRPFDYPRP
Result :: low end

Query :: Item: RRIRERPPRLPRPRPRPHRQPRP
Result :: middle

Query :: Item: RRIRMRPPRLPRPRPRPVMHPRP
Result :: middle

Query :: Item: RRIRVRPPRLPRPRPRPNHPPRP
Result :: middle

Query :: Item: RRIRWRPPRLPRPRPRPLDWPRP
Result :: high end

* * *

Test system: Escherichia coli TOP10
PROCEDURE TEXT: shrunken log2 fold change of peptide-encoding DNA abundance (4.5 h post-induction vs induction); higher = less antimicrobial activity (less host growth inhibition)
EXPERIMENTAL CONTEXT: time post-induction: 4.5 h; library: site-saturation at positions 5, 18, 19, 20
So I've got a bunch of sequences here, and I need their shrunken log2 fold change values.
Reply with just the number.

Query :: I'd like to know its shrunken log2 fold change. The sequence in question is RRIRLRPPRLPRPRPRPTVVPRP
Result :: -0.0551

Query :: Item: RRIRCRPPRLPRPRPRPHKHPRP
Result :: -0.58

Query :: Item: RRIRLRPPRLPRPRPRPMYGPRP
Result :: -0.179

Query :: Item: RRIRKRPPRLPRPRPRPGGHPRP
Result :: 0.0505

Query :: Item: RRIRDRPPRLPRPRPRPPFHPRP
Result :: 0.0293

Query :: Item: RRIRIRPPRLPRPRPRPVAWPRP
Result :: -0.0525

Query :: Item: RRIRFRPPRLPRPRPRPQWLPRP
Result :: -0.0613

Query :: Item: RRIRDRPPRLPRPRPRPFEWPRP
Result :: 0.109

Query :: Item: RRIRLRPPRLPRPRPRPESFPRP
Result :: 0.0256

Query :: Item: RRIRIRPPRLPRPRPRPRPTPRP
Result :: 0.152

Query :: Item: RRIRVRPPRLPRPRPRPDMAPRP
Result :: 0.00912

Query :: Item: RRIRVRPPRLPRPRPRPARWPRP
Result :: 0.586

Query :: Item: RRIRTRPPRLPRPRPRPTIRPRP
Result :: -0.0471

Query :: Item: RRIRFRPPRLPRPRPRPYKDPRP
Result :: -0.213

Query :: Item: RRIRCRPPRLPRPRPRPQNGPRP
Result :: 0.0924

* * *

System: Escherichia coli TOP10
PROCEDURE TEXT: shrunken log2 fold change of peptide-encoding DNA abundance (4.5 h post-induction vs induction); higher = less antimicrobial activity (less host growth inhibition)
EXPERIMENTAL CONTEXT: time post-induction: 4.5 h; library: site-saturation at positions 5, 18, 19, 20
So I've got a bunch of sequences here, and I need their shrunken log2 fold change values.
Reply with just the number.

Query :: I'd like to know its shrunken log2 fold change. The sequence in question is RRIRQRPPRLPRPRPRPKWKPRP
Result :: -0.0193

Query :: Item: RRIRFRPPRLPRPRPRPRHKPRP
Result :: 0.202

Query :: Item: RRIRWRPPRLPRPRPRPDNEPRP
Result :: 0.403

Query :: Item: RRIRFRPPRLPRPRPRPVCVPRP
Result :: -0.168

Query :: Item: RRIRHRPPRLPRPRPRPNQAPRP
Result :: 0.033

Query :: Item: RRIRCRPPRLPRPRPRPFMQPRP
Result :: -0.402

Query :: Item: RRIRVRPPRLPRPRPRPSHSPRP
Result :: -0.171

Query :: Item: RRIRHRPPRLPRPRPRPKRNPRP
Result :: 0.0354

* * *

Test system: Escherichia coli TOP10;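 note: peptides expressed intracellularly from a pBAD plasmid library in pooled LB shake-flask culture, induced with 0.3% L-arabinose, DNA abundance read by NGS, three biological replicates, DESeq2 with apeglm shrinkage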
PROCEDURE TEXT: shrunken log2 fold change of peptide-encoding DNA abundance (4.5 h post-induction vs induction); higher = less antimicrobial activity (less host growth inhibition)
EXPERIMENTAL CONTEXT: time post-induction: 4.5 h; library: site-saturation at positions 5, 18, 19, 20
Binning of shrunken log2 fold change into classes: low group: < -0.1; middle group: ≥ -0.1 and < 0.09; high group: ≥ 0.09

Query :: Sort RRIRHRPPRLPRPRPRPGCIPRP into one of the categories.
Result :: low group

Query :: Item: RRIRARPPRLPRPRPRPCDEPRP
Result :: middle group

Query :: Item: RRIRNRPPRLPRPRPRPNGPPRP
Result :: middle group

Query :: Item: RRIRDRPPRLPRPRPRPKMDPRP
Result :: middle group

Query :: Item: RRIRDRPPRLPRPRPRPQYWPRP
Result :: low group

Query :: Item: RRIRGRPPRLPRPRPRPNYKPRP
Result :: high group

Query :: Item: RRIRDRPPRLPRPRPRPMIMPRP
Result :: high group

Query :: Item: RRIRSRPPRLPRPRPRPSPIPRP
Result :: low group

Query :: Item: RRIRMRPPRLPRPRPRPEQWPRP
Result :: high group

Query :: Item: RRIRERPPRLPRPRPRPALVPRP
Result :: high group

Query :: Item: RRIRYRPPRLPRPRPRPHFFPRP
Result :: low group

Query :: Item: RRIRCRPPRLPRPRPRPQFVPRP
Result :: low group

Query :: Item: RRIRDRPPRLPRPRPRPQTNPRP
Result :: high group

Query :: Item: RRIRGRPPRLPRPRPRPVQFPRP
Result :: high group

Query :: Item: RRIRHRPPRLPRPRPRPTQCPRP
Result :: middle group

Query :: Item: RRIRARPPRLPRPRPRPEVTPRP
Result :: high group

Query :: Item: RRIRWRPPRLPRPRPRPNFIPRP
Result :: low group

Query :: Item: RRIRLRPPRLPRPRPRPRWEPRP
Result :: middle group

Query :: Item: RRIRSRPPRLPRPRPRPSESPRP
Result :: low group

Query :: Item: RRIRNRPPRLPRPRPRPNLQPRP
Result :: low group

Query :: Item: RRIRHRPPRLPRPRPRPLTDPRP
Result :: low group

Query :: Item: RRIRPRPPRLPRPRPRPERAPRP
Result :: high group

Query :: Item: RRIRNRPPRLPRPRPRPVMWPRP
Result :: high group

Query :: Item: RRIRVRPPRLPRPRPRPGMEPRP
Result :: high group

Query :: Item: RRIRMRPPRLPRPRPRPSNLPRP
Result :: middle group

Query :: Item: RRIRLRPPRLPRPRPRPNDLPRP
Result :: middle group

Query :: Item: RRIRCRPPRLPRPRPRPVMSPRP
Result :: low group

Query :: Item: RRIRCRPPRLPRPRPRPEHCPRP
Result :: middle group

Query :: Item: RRIRCRPPRLPRPRPRPFGGPRP
Result :: middle group

Query :: Item: RRIRYRPPRLPRPRPRPQTYPRP
Result :: low group

Query :: Item: RRIRFRPPRLPRPRPRPRCKPRP
Result :: middle group

Query :: Item: RRIRPRPPRLPRPRPRPSNEPRP
Result :: low group

Query :: Item: RRIRHRPPRLPRPRPRPTVPPRP
Result :: middle group

Query :: Item: RRIRVRPPRLPRPRPRPSEDPRP
Result :: high group

Query :: Item: RRIRRRPPRLPRPRPRPNTYPRP
Result :: low group

Query :: Item: RRIRLRPPRLPRPRPRPNFHPRP
Result :: low group

Query :: Item: RRIRYRPPRLPRPRPRPACRPRP
Result :: middle group

Query :: Item: RRIRTRPPRLPRPRPRPHKVPRP
Result :: middle group

Query :: Item: RRIRSRPPRLPRPRPRPGLRPRP
Result :: high group

Query :: Item: RRIRNRPPRLPRPRPRPKGIPRP
Result :: middle group

Query :: Item: RRIRFRPPRLPRPRPRPEYKPRP
Result :: middle group

Query :: Item: RRIRNRPPRLPRPRPRPEMGPRP
Result :: middle group

Query :: Item: RRIRVRPPRLPRPRPRPARAPRP
Result :: high group

Query :: Item: RRIRYRPPRLPRPRPRPECNPRP
Result :: middle group

Query :: Item: RRIRVRPPRLPRPRPRPQPLPRP
Result :: low group

Query :: Item: RRIRVRPPRLPRPRPRPMTKPRP
Result :: middle group

Query :: Item: RRIRPRPPRLPRPRPRPTMKPRP
Result :: low group

Query :: Item: RRIRGRPPRLPRPRPRPYAAPRP
Result :: high group

Query :: Item: RRIRKRPPRLPRPRPRPMFRPRP
Result :: middle group

Query :: Item: RRIRMRPPRLPRPRPRPGMTPRP
Result :: high group

Query :: Item: RRIRVRPPRLPRPRPRPMRPPRP
Result :: high group

Query :: Item: RRIRYRPPRLPRPRPRPEYLPRP
Result :: low group

Query :: Item: RRIRFRPPRLPRPRPRPMNEPRP
Result :: low group

Query :: Item: RRIRMRPPRLPRPRPRPWIAPRP
Result :: middle group

Query :: Item: RRIRRRPPRLPRPRPRPHCCPRP
Result :: high group

Query :: Item: RRIRNRPPRLPRPRPRPKFQPRP
Result :: low group

Query :: Item: RRIRSRPPRLPRPRPRPFLWPRP
Result :: middle group

Query :: Item: RRIRTRPPRLPRPRPRPLQNPRP
Result :: high group

Query :: Item: RRIRIRPPRLPRPRPRPQCSPRP
Result :: low group

Query :: Item: RRIRERPPRLPRPRPRPEGWPRP
Result :: high group
